We begin with a simple list: items and their reported inhibition at 10 µM.
Molecular target: HIV-1 protease (Human immunodeficiency virus type 1 group M subtype B)
Test: biochemical
Details: Table I; Dose 10.000 μM; read-out: Protease % Inhib
Parameter Measured: inhibition at 10 µM (%)

• CCC(CCN=[N+]=[N-])c1cc(O)c(C(c2cccc(NS(=O)(=O)c3cn(C)cn3)c2)C2CC2)c(=O)o1 (stereo not shown) [Example 109] = 109
• Cn1cnc(S(=O)(=O)Nc2cccc(C(C3=C(O)CC(CCC4CC4)(CCC4CC4)OC3=O)C(C)(C)C)c2)c1 (stereo not shown) [Example 264] = 53.7
• CCCC1(CCc2ccccc2)CC(O)=C(C(c2cccc(NS(=O)(=O)c3cccc4cccnc34)c2)C2CC2)C(=O)O1 (stereo not shown) [Example 60] = 106
• CC(C)(C)C(C1=C(O)CC(CCC2CC2)(CCC2CC2)OC1=O)c1cccc(NS(=O)(=O)c2ccc(C#N)cn2)c1 (stereo not shown) [Example 265] = 80.3
• CCCC1(CCC)CC(O)=C(C(CC)c2cccc(NS(=O)(=O)c3ccc(C#N)cc3)c2)C(=O)O1 (stereo not shown) [Example 46] = 91.5
• N#Cc1ccc(S(=O)(=O)Cc2cccc(C(c3c(O)c4c(oc3=O)CCCCCC4)C3CC3)c2)cc1 (stereo not shown) [Example 11] = 99.7
• CN(c1cccc(C(c2c(O)c3c(oc2=O)CCCCCC3)C2CC2)c1)S(=O)(=O)c1cn(C)cn1 (stereo not shown) [Example 195] = 93.1

###

Target: UniProt:P04585
Assay: biochemical
Conditions: read-out: Protease % Inhib
The entries below come with measured inhibition at 30 µM values attached.
Parameter Measured: inhibition at 30 µM (%)

- CCCCCC1(CCCCC)CC(O)=C(C(CC)c2cccc(NS(=O)(=O)c3cn(C)cn3)c2)C(=O)O1 (stereo not drawn): 78.8
- O=c1oc(C(CC2CC2)CC2CC2)cc(O)c1C(c1cccc(NS(=O)(=O)c2ccc(F)cc2)c1)C1CC1 (stereo not drawn): 111
- COCCOCCOCCOc1ccc2c(O)c(C(c3cccc(NS(=O)(=O)c4cn(C)cn4)c3)C3CC3)c(=O)oc2c1 (stereo not drawn): 115
- CCCC1(CCc2ccccc2)CC(O)=C(C(c2cccc(NS(=O)(=O)c3ccc(C#N)cn3)c2)C(C)(C)C)C(=O)O1 (stereo not drawn): 93.2
- CCCC1(CCc2ccccc2)CC(O)=C(C(CC)c2cccc(NS(=O)(=O)c3ccc(F)cc3)c2)C(=O)O1 (stereo not drawn) [Example 93A]: 96.6
- O=c1oc2c(c(O)c1C(c1cccc(CS(=O)(=O)c3ccccc3)c1)C1CC1)CCCCCC2 (stereo not drawn): 130
- COCCOCCOCCOc1ccc2c(O)c(C(c3cccc(NS(=O)(=O)c4ccccn4)c3)C3CC3)c(=O)oc2c1 (stereo not drawn): 99.2
- CCCC1(CCc2ccccc2)CC(O)=C(C(CC)c2cccc(NS(=O)(=O)c3ccc(C#N)cn3)c2)C(=O)O1 (stereo not drawn): 88.2
- COc1ccc2c(O)c(C(c3cccc(NS(=O)(=O)c4cn(C)cn4)c3)C3CC3)c(=O)oc2c1 (stereo not drawn): 96.5
- CCCC1(CCc2ccccc2)CC(O)=C(C(CC)c2cccc(NS(=O)(=O)c3cccc4cccnc34)c2)C(=O)O1 (stereo not drawn): 76.1
- Cn1cnc(S(=O)(=O)Nc2cccc(C(c3c(O)cc(C(CC4CC4)CC4CC4)oc3=O)C3CC3)c2)c1 (stereo not drawn): 115
- CCCC1(CCc2ccccc2)CC(O)=C(C(CC)c2cccc(NS(=O)(=O)c3cn(C)cn3)c2)C(=O)O1 (stereo not drawn): 72.8
